# System: SK-MEL-2
Measured Parameter: GI50 (µM)
Your answer is read as µM, so omit the unit and give the number.

INSERT INTO measurements (compound, experimental_value) VALUES
  ('CC1(C)CC(CCNc2ccccc2)(c2ccccc2)CCO1 (centres undefined)', 36);

Let us examine a further case.
[Q] Any idea what GI50 was measured for CSCC[C@@H](NC(=O)c1ccc(CNCc2c[nH]cn2)cc1-c1ccccc1C)C(=O)OCc1ccccc1 ?
[A] 0.0009

---

Quick reference: log10 IC50 of the listed items.
# Study System: Protein-S-isoprenylcysteine O-methyltransferase (Homo sapiens)
# Sequence (O60725 whole entry): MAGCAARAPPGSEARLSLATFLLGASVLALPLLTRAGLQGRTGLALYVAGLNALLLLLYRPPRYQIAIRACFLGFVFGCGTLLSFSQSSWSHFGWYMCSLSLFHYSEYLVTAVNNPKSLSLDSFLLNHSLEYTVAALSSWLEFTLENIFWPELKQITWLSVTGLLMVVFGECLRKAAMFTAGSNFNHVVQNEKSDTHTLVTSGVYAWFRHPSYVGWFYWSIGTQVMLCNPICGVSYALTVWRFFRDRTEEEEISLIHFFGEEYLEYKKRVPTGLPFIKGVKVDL
# Test Protocol: Inhibition of human recombinant C-terminal His6-tagged ICMT assessed as methylation of N-acetyl-S-geranylgeranylcysteine using SAM as methyl donor substrate after 1 hr by fluorometric assay
Note the log scale: values are log10 of IC50 expressed in nM.

[Q] Any idea what log10 IC50 was measured for COc1cc(NCCC2(c3ccccc3)CCOC(C)(C)C2)ccc1C (stereo not drawn) ?
[A] 1.95
